system: HepG2; test: cytotoxicity call (relative viability < 0.9); conditions: 10 µM
The whole screen tested about 39,000 compounds, of which about 3,300 (8.5%) were called active. The list comes from a sample in which actives are over-represented; it also holds close analogues and randomly drawn compounds.
Outcomes: t (active), f (inactive)

# SMILES REPR, MEASURED ON, GROUP
measured = [
    ("NCC(=O)NCC(=O)O", "HepG2", "f"),
    ("C[C@@H]1CCCCO[C@@H](CN(C)S(=O)(=O)c2ccc(F)cc2)[C@@H](C)CN([C@@H](C)CO)C(=O)c2cc(NC(=O)Nc3cccc4ccccc34)ccc2O1", "HepG2", "f"),
    ("NCCc1[nH]cnc1-c1cccs1", "HepG2", "f"),
    ("COc1ccc(CN2C[C@@H](C)[C@H](OC)CN(C)C(=O)c3ccc(NC(=O)c4nc5ccccc5s4)cc3OC[C@@H]2C)cc1", "HepG2", "f"),
    ("C[C@H]1CN([C@@H](C)CO)C(=O)c2cccc(NC(=O)c3ccc(-c4nccs4)cc3)c2O[C@@H]1CN(C)C(=O)Nc1cccc2ccccc12", "HepG2", "f"),
    ("COc1ccc(C#Cc2cnc3c(c2)C(=O)N([C@H](C)CO)C[C@H](C)[C@@H](CN(C)C(=O)CN(C)C)O3)cc1", "HepG2", "f"),
    ("O=C(O)CNC(=O)C(=O)O", "HepG2", "t"),
    ("Cc1noc(C)c1NC(=O)N(C)C[C@H]1Oc2ccc(NC(=O)C3CC3)cc2CC(=O)N([C@@H](C)CO)C[C@@H]1C", "HepG2", "f"),
    ("O=C(O)c1cc2ccc(O)c(=O)c-2c(O)c(O)c1", "HepG2", "f"),
]

----------
test system: HepG2; assay: cytotoxicity call (relative viability < 0.9); conditions: 10 µM
Out of some 39,000 compounds screened, about 3,300 (8.5%) were called active. For the sample, actives were picked, then their nearest neighbours and some compounds at random.
Outcomes: active, inactive

# SMILES REPR, MEASURED ON, GROUP
measured = [
    ("Cc1ccc(S(=O)(=O)Nc2cccc3c2O[C@H](CN(C)Cc2ccc(Cl)c(Cl)c2)[C@H](C)CN([C@H](C)CO)C3=O)cc1", "HepG2", "inactive"),
    ("COc1ccc(C[C@@H]2c3cc(OC)c(OC)cc3CC[N@+]2(C)CCC(=O)OCCCCCOC(=O)CC[N@@+]2(C)CCc3cc(OC)c(OC)cc3[C@H]2Cc2ccc(OC)c(OC)c2)cc1OC", "HepG2", "active"),
    ("COc1cccc(OC[C@@H](O)CN(CCO)CCO)c1", "HepG2", "inactive"),
    ("C[C@@H]1CN([C@H](C)CO)C(=O)c2cccc(NC(=O)c3ccc(-c4nccs4)cc3)c2O[C@H]1CN(C)Cc1ccc(C(=O)Nc2ccccc2N)cc1", "HepG2", "inactive"),
    ("Cc1cc(C(=O)Nc2cccc3c2O[C@@H](CN(C)S(=O)(=O)c2ccc(Cl)cc2)[C@H](C)CN([C@@H](C)CO)C3=O)n(C)n1", "HepG2", "inactive"),
    ("Cc1ccc(S(=O)(=O)N(C)C[C@H]2Oc3ccc(NC(=O)NC(C)C)cc3CC(=O)N([C@H](C)CO)C[C@@H]2C)cc1", "HepG2", "inactive"),
    ("C[C@H](CO)N1C[C@H](C)[C@H](CN(C)S(=O)(=O)c2cn(C)cn2)Oc2cc(C3=CCCCC3)ccc2S1(=O)=O", "HepG2", "inactive"),
]

----------
test system: HepG2; assay: cytotoxicity call (relative viability < 0.9); settings: 10 µM
Screen size: about 39,000 compounds; about 3,300 (8.5%) were called active. The list comes from a sample in which actives are over-represented; it also holds close analogues and randomly drawn compounds.
Outcomes: true (active), false (inactive)

# SMILES REPR, MEASURED ON, GROUP
rows = [
    ("COc1ccc(NC(=O)Nc2ccc3c(c2)C(=O)N([C@@H](C)CO)C[C@H](C)[C@H](CN(C)Cc2ccccc2)OCCCC[C@@H](C)O3)cc1", "HepG2", "false"),
    ("C[C@@H]1CCCCO[C@@H](CN(C)S(=O)(=O)c2ccccc2)[C@@H](C)CN([C@@H](C)CO)C(=O)c2cc(NC(=O)Nc3ccc4c(c3)OCO4)ccc2O1", "HepG2", "false"),
    ("CC(C)COC(=O)CNc1n[nH]c(=O)[nH]c1=O", "HepG2", "false"),
    ("Cc1noc(C)c1S(=O)(=O)N(C)C[C@@H]1OCCCC[C@@H](C)Oc2ccc(NC(=O)Nc3ccccc3)cc2C(=O)N([C@H](C)CO)C[C@H]1C", "HepG2", "false"),
    ("CCc1cccc(C)c1NC(C)=O", "HepG2", "false"),
    ("C[C@@H]1CCCCO[C@@H](CN(C)Cc2ccc(C(=O)O)cc2)[C@H](C)CN([C@H](C)CO)C(=O)c2cc(NC(=O)Nc3ccc(C(F)(F)F)cc3)ccc2O1", "HepG2", "false"),
    ("Cc1noc(C)c1S(=O)(=O)N(C)C[C@@H]1OCCCC[C@H](C)Oc2ccc(NC(=O)Nc3ccccc3)cc2C(=O)N([C@H](C)CO)C[C@H]1C", "HepG2", "true"),
    ("CN(C)C(=O)N[C@H]1CN(S(C)(=O)=O)[C@H]2CCCO[C@@H]12", "HepG2", "false"),
]

----------
system: HepG2; assay: cytotoxicity call (relative viability < 0.9); details: 10 µM
The whole screen tested about 39,000 compounds, of which about 3,300 (8.5%) were called active. The list comes from a sample in which actives are over-represented; it also holds close analogues and randomly drawn compounds.
Outcomes: yes (1) (active), no (0) (inactive)

# SMILES REPR, GROUP
measured = [
    ("C[C@@H]1CCCCO[C@H](CN(C)C(=O)Nc2ccc(C(F)(F)F)cc2)[C@@H](C)CN([C@@H](C)CO)C(=O)c2cc(NC(=O)Cc3ccccc3)ccc2O1", "no (0)"),
    ("C[C@@H]1CCCCO[C@@H](CN(C)C(=O)Nc2ccccc2)[C@H](C)CN([C@@H](C)CO)C(=O)c2cc(NC(=O)Cc3ccccc3)ccc2O1", "no (0)"),
    ("CCOC(=O)N1CCN(C[C@@H](O)Cn2c(=O)c3c(ncn3C)n(C)c2=O)CC1", "no (0)"),
    ("COc1ccc(C#Cc2cnc3c(c2)C(=O)N([C@H](C)CO)C[C@H](C)[C@H](CN(C)S(=O)(=O)c2cccc(F)c2)O3)cc1OC", "no (0)"),
    ("C[C@@H]1CCCCO[C@@H](CN(C)C(=O)Nc2ccc(C(F)(F)F)cc2)[C@H](C)CN([C@H](C)CO)C(=O)c2cc(NC(=O)Cc3ccccc3)ccc2O1", "yes (1)"),
    ("C[C@@H]1CN([C@H](C)CO)C(=O)c2cc(NC(=O)Cc3ccccc3)ccc2O[C@@H](C)CCCCO[C@H]1CN(C)C(=O)Nc1ccccc1", "yes (1)"),
    ("COCC(=O)Nc1ccc2c(c1)[C@@H]1C[C@H](CC(=O)N3CCOCC3)O[C@H](CO)[C@@H]1O2", "no (0)"),
]

----------
system: HepG2; experiment: cytotoxicity call (relative viability < 0.9); settings: 10 µM
Out of some 39,000 compounds screened, about 3,300 (8.5%) were called active. The list comes from a sample in which actives are over-represented; it also holds close analogues and randomly drawn compounds.
Outcomes: active, inactive

# SMILES REPR, GROUP
rows = [
    ("C[C@H]1CCCCO[C@H](CN(C)C(=O)Nc2cccc3ccccc23)[C@@H](C)CN([C@@H](C)CO)C(=O)c2cc(NC(=O)Cc3ccccc3)ccc2O1", "inactive"),
    ("Cc1ccc(-c2ccc3c(c2)O[C@@H](CN(C)C(=O)Nc2ccc(C(F)(F)F)cc2)[C@@H](C)CN([C@H](C)CO)S3(=O)=O)cc1", "active"),
    ("Cc1ccccc1-c1ccc2c(c1)O[C@H](CN(C)C(=O)Nc1ccc(C(F)(F)F)cc1)[C@H](C)CN([C@H](C)CO)S2(=O)=O", "inactive"),
]

----------
system: HepG2; assay: cytotoxicity call (relative viability < 0.9); details: 10 µM
Screen size: about 39,000 compounds; about 3,300 (8.5%) were called active. This excerpt belongs to a sample that is enriched for actives.
Outcomes: active, inactive

# MOLECULE, MEASURED ON, GROUP
rows = [
    ("C[C@@H]1CCCCO[C@@H](CN(C)Cc2ccc(C(F)(F)F)cc2)[C@H](C)CN([C@H](C)CO)C(=O)c2cc(NC(=O)Cc3ccccc3)ccc2O1", "HepG2", "inactive"),
    ("C[C@@H]1CN([C@@H](C)CO)S(=O)(=O)c2ccc(-c3cncnc3)cc2O[C@@H]1CN(C)C(=O)NC1CCCC1", "HepG2", "inactive"),
    ("O=c1cc(-c2ccccc2)oc2ccccc12", "HepG2", "inactive"),
    ("Cc1cn([C@@H]2C[C@H](O)[C@@H](CO)O2)c(=O)[nH]c1=O", "HepG2", "inactive"),
    ("COc1ccc2c(=O)cc(-c3ccccc3OC)oc2c1", "HepG2", "inactive"),
    ("CCOC(=O)COc1ccc2c(=O)cc(-c3ccccc3)oc2c1", "HepG2", "active"),
    ("C[C@H]1CN([C@@H](C)CO)C(=O)c2cc(NS(=O)(=O)c3ccccc3)ccc2O[C@@H]1CN(C)CC1CC1", "HepG2", "inactive"),
    ("C[C@@H]1CCCn2nncc2COCCNC1=O", "HepG2", "inactive"),
    ("Cc1ccc(OC[C@@H](O)CN)c(C)c1", "HepG2", "inactive"),
    ("C[C@H]1CCCCO[C@H](CN(C)Cc2ccccc2)[C@@H](C)CN([C@@H](C)CO)C(=O)c2cc(NC(=O)Cc3ccccc3)ccc2O1", "HepG2", "inactive"),
    ("C[C@@H]1CN([C@H](C)CO)C(=O)c2cc(NC(=O)Cc3ccccc3)ccc2O[C@@H](C)CCCCO[C@H]1CN(C)Cc1ccc(C(F)(F)F)cc1", "HepG2", "active"),
    ("C[C@@H]1CCCCO[C@H](CN(C)Cc2ccccc2)[C@@H](C)CN([C@@H](C)CO)C(=O)c2cc(NC(=O)Cc3ccccc3)ccc2O1", "HepG2", "active"),
    ("C[C@H](CO)N1C[C@H](C)[C@@H](CN(C)S(=O)(=O)c2ccc(C#N)cc2)OCc2cnnn2CCCC1=O", "HepG2", "inactive"),
    ("C[C@H]1CCCCO[C@@H](CN(C)C)[C@@H](C)CN([C@@H](C)CO)C(=O)c2cc(NC(=O)CCCN(C)C)ccc2O1", "HepG2", "inactive"),
    ("CC(C)=CCCC(C)(O)C1CC=C(C)CC1 (configuration not stated)", "HepG2", "active"),
    ("COc1ccc(NC(=O)N2C[C@@H](O)COC[C@H]3O[C@@H](CC(=O)NCc4ccccc4OC)CC[C@@H]32)cc1", "HepG2", "inactive"),
    ("C[C@@H]1CN([C@@H](C)CO)C(=O)c2cc(NC(=O)Cc3ccccc3)ccc2O[C@@H](C)CCCCO[C@H]1CN(C)Cc1ccc(C(F)(F)F)cc1", "HepG2", "inactive"),
]
